Biological target: T1, 4H4073-bA
T1 chain: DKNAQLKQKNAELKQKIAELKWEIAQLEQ
Test: two-hybrid library CCNG1;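 also: natural log of median RNA to DNA barcode read ratio; higher means stronger binding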
measurement.kind: interaction score

Known interaction score results, listed for orientation:
| binder | interaction score |
| --- | --- |
| DEIAQLEQENAELEQKIAELKWEIAQLKQ [4H170-bA] | 1.89 |
| DKNAQLKQKIAELKQENAELEWKIAQLKQ [4H3926-bA] | -0.409 |
| DKIQELKKENEELKREIWELEKKNQELKR [4H2760-bH] | -0.277 |
| DENAQLKQKIAELEQKIAELEWKNAQLEQ [4H1831-bA] | -0.475 |
| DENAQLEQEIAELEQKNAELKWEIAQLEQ [4H1081-bA] | -0.497 |

Could you tell me interaction score for each of these binders? They are listed below.
1. DKIAQLKQEIAELKQEIAELEWENAQLEQ [4H2627-bA]
2. DKNAQLKQKNAELKQKIAELKWEIAQLEQ [4H4073-bA]

Reply |
[1.07, -0.968]
